B1: glmS ribozyme (parent)
chain: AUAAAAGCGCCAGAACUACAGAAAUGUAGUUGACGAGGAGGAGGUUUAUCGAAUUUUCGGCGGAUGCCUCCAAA

# Variants of: B1
# procedure text: self-cleavage kobs at 40 uM GlcN6P; higher = faster cleavage; RNA array
# settings: with glucosamine-6-phosphate
Variants at the floor of the assay were thinned out.
Below: a set of entries, each annotated with reported self-cleavage kobs at 40 uM GlcN6P.

U56C U69C C70A | < 1e-05 s⁻¹
A12C G13A U65C C68U | < 1e-05 s⁻¹
A14C C16U | 5.34e-05 s⁻¹

Task: Indicate its recorded self-cleavage kobs at 40 uM GlcN6P; the variant in question is G9U C10G
Result: < 1e-05 s⁻¹

Task: Indicate its recorded self-cleavage kobs at 40 uM GlcN6P; the variant in question is A14G G37A
Result: 0.000119 s⁻¹

Task: Indicate its recorded self-cleavage kobs at 40 uM GlcN6P; the variant in question is C11U C16U
Result: 6.96e-05 s⁻¹

Task: Indicate its recorded self-cleavage kobs at 40 uM GlcN6P; the variant in question is U56A C67U
Result: 0.000175 s⁻¹

Task: Indicate its recorded self-cleavage kobs at 40 uM GlcN6P; the variant in question is G40A A42G
Result: 0.000182 s⁻¹

Task: Indicate its recorded self-cleavage kobs at 40 uM GlcN6P; the variant in question is U31C U45A G60A C67A
Result: < 1e-05 s⁻¹

Task: Indicate its recorded self-cleavage kobs at 40 uM GlcN6P; the variant in question is G43C G66A
Result: < 1e-05 s⁻¹

Task: Indicate its recorded self-cleavage kobs at 40 uM GlcN6P; the variant in question is G13A A14U C50G C68U
Result: 8.53e-05 s⁻¹

Task: Indicate its recorded self-cleavage kobs at 40 uM GlcN6P; the variant in question is A15U A53U
Result: 9.26e-05 s⁻¹

Task: Indicate its recorded self-cleavage kobs at 40 uM GlcN6P; the variant in question is U55G G66U
Result: 4.47e-05 s⁻¹

Task: Indicate its recorded self-cleavage kobs at 40 uM GlcN6P; the variant in question is A12C U65A
Result: 3.82e-05 s⁻¹

Task: Indicate its recorded self-cleavage kobs at 40 uM GlcN6P; the variant in question is A12G G40C G43C
Result: < 1e-05 s⁻¹

Task: Indicate its recorded self-cleavage kobs at 40 uM GlcN6P; the variant in question is A36G A64U U65G
Result: < 1e-05 s⁻¹

Task: Indicate its recorded self-cleavage kobs at 40 uM GlcN6P; the variant in question is C34A A48C
Result: < 1e-05 s⁻¹

Task: Indicate its recorded self-cleavage kobs at 40 uM GlcN6P; the variant in question is G44U C58U C71U
Result: < 1e-05 s⁻¹

Task: Indicate its recorded self-cleavage kobs at 40 uM GlcN6P; the variant in question is G44U C58G C68U
Result: < 1e-05 s⁻¹

Entry source: the supplement of paper PMC7125110
